- Test Target: human renin (Homo sapiens, UniProt P00797)
- Sequence (P00797 67-406): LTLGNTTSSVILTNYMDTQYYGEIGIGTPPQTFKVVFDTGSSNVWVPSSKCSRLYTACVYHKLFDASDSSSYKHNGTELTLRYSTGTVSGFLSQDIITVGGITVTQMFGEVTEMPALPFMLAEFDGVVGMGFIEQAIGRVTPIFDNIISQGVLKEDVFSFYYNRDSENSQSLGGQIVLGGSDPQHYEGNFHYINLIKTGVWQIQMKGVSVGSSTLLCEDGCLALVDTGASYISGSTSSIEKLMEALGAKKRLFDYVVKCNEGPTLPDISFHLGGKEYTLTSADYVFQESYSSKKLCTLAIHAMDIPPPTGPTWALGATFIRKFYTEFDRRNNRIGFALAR
- Test Details: Human Renin Inhibition in vitro (angiotensin I produced, by radioimmunoassay)
- Experimental Conditions: pH 7.4, 37° C., two hours, human plasma
Observed Property: IC50 (nM)
Just the number please, in nM, no unit attached.

Prompt line: Look at this compound and give its reported IC50. C#CC[C@H](NC(=O)[C@@H](CC(=O)N(C)CCN1CCOCC1)Cc1ccccc1)C(=O)N[C@@H](CC1CCCCC1)[C@@H](O)[C@@H](O)CC(C)C
Response line: 1

Data provenance is patent US5422349A.
